Tested on: PC-3
ASSAY_COMMENT: NCI tumour cell line growth inhibition, 48 h
Activity calls are given as the source filed them. No stated cut-off is given here; in the data, active = GI50 up to about 1.1 µM and inactive = higher. Non-standard residues stand in square brackets, D forms with d. Residues, ends and D or L forms follow the SMILES beside them. *: point of attachment. X30 = COC1=CC(=O)N(C(=O)[C@@H](O*)C(C)C)[C@H]1Cc1ccccc1; NMeL = CN[C@@H](CC(C)C)C(=O)O; Cbz = O=C(OCc1ccccc1)*
The molecules listed here are annotated with their GI50.

Cc1cc2c(cc1C(=O)CCC(=O)O)CC1(C2)Cc2cc(C)c(C(=O)CCC(=O)O)cc2C1: > 100 µM (inactive)
C=CCOc1ccc(N)c([N+](=O)[O-])c1: > 100 µM (inactive)
OCc1ccc2c(c1)CC1(Cc3ccc(/C=N/O)cc3C1)C2 (stereo unspecified): 3.74 µM (inactive)
Cc1cc(C)c(C(=O)c2nnc3ccccc3c2N)c(C)c1: 17.4 µM (inactive)
COc1ccc2c(c1)CCCN1Cc3cc(OC)c(OC)cc3CC21 (stereo unspecified): > 100 µM (inactive)

Tell me measured GI50 for O=c1c2c3c(sc2nc2n1N=C(c1ccc([N+](=O)[O-])cc1)CS2)CCCC3 please.
> 100 µM (inactive)

Tell me measured GI50 for COC1=CC(=O)N(C(=O)[C@@H](OC(=O)[C@@H]2CCCN2C(=O)[C@@H]2CCCN2C(=O)[C@H](CC(C)C)N(C)C(=O)[C@@H](NC(=O)[C@@H](NC(=O)OCc2ccccc2)C(C)C)C(C)C)C(C)C)[C@H]1Cc1ccccc1 (Cbz-VV[NMeL]PP-X30) please.
11.2 µM (inactive)

Tell me measured GI50 for Cc1nn(C(=O)c2ccccc2O)c2c1C(c1ccccc1O)SC(=N)N2 (stereo unspecified) please.
7.71 µM (inactive)

Tell me measured GI50 for O=C1/C(=C\c2ccc(Br)cc2)CCCc2ccccc21 please.
20.3 µM (inactive)

Tell me measured GI50 for Clc1ccccc1C(Nc1ncccn1)Nc1ncccn1 please.
> 100 µM (inactive)

Tell me measured GI50 for O=CN1CCN(c2ccc3ccc(O)nc3n2)CC1 please.
> 100 µM (inactive)

* * *

Tested on: Hs-578T
ASSAY_COMMENT: NCI tumour cell line growth inhibition, 48 h
Calls of active or inactive are those of the source. Cut-off read from the data, not from the text of the source: active = GI50 up to about 1.1 µM and inactive = higher.
MEASURE_NAME: GI50

See these solved cases before continuing.
COC(=O)C1Cc2cc3c(cc2C1)CCC3: > 100 µM (inactive)
CN1CCC2(CC1)/C(=N/C1CCCCC1)NC(=S)N2c1ccccc1: 13.8 µM (inactive)
Nc1ccn(C2CC(O)C(COP(=O)(S)OC3CC(n4ccc(N)nc4=O)OC3CO)O2)c(=O)n1 (configuration not stated): > 100 µM (inactive)
COC(=O)NNc1c([N+](=O)[O-])cnn(-c2ccccc2)c1=O: 4.53 µM (inactive)
CC1=CC(=O)c2cccc(NC3=NCCO3)c21: 76.9 µM (inactive)
CCN1CCC(O)(c2ccc(Oc3ccc(C)cc3)cc2)C(C(=O)c2ccc(Oc3ccc(C)cc3)cc2)C1 (configuration not stated): 17.8 µM (inactive)
CCN(CC(=O)O)C(=O)c1cccnc1: > 100 µM (inactive)
O=C(O)CCC(NC(=O)c1ccc(Nc2nc3ccc(C(F)(F)F)cc3nc2C(=O)O)cc1)C(=O)O (configuration not stated): > 100 µM (inactive)
CCOc1cc(C2CC(c3ccc(NS(=O)(=O)c4cc([N+](=O)[O-])ccc4C)cc3)=NN2)ccc1O (configuration not stated): 65 µM (inactive)
CCOC(=O)NNC(=O)NCCNC(=O)NNC(=O)OCC: > 100 µM (inactive)

Tell me measured GI50 for COc1cc2c(cc1OC)C(=O)/C(=C/c1ccc(N(C)C)cc1)CC2 please.
> 10 µM (inactive)

Tell me measured GI50 for CN(CC(N)=O)C(=O)N(CCCl)N=O please.
> 100 µM (inactive)

Tell me measured GI50 for COc1cc(OC)c(OC)cc1/C=C\c1ccnc2ccccc12 please.
0.252 µM (active)

Tell me measured GI50 for C/C(Cl)=N\OC(=O)Nc1ccccc1C(F)(F)F please.
> 100 µM (inactive)
